Target: GPIIb/IIIa (Homo sapiens, UniProt P05106+P08514)
Construct: Purification of GPIIb/IIIa from HEL cells; endogenous in cells; host or cells: HEL cells (HEL 92.1.7, ATCC TIB180); endogenous complex solubilized with Triton X-100 and purified in house
Sequence (P08514 32-887 limits assumed): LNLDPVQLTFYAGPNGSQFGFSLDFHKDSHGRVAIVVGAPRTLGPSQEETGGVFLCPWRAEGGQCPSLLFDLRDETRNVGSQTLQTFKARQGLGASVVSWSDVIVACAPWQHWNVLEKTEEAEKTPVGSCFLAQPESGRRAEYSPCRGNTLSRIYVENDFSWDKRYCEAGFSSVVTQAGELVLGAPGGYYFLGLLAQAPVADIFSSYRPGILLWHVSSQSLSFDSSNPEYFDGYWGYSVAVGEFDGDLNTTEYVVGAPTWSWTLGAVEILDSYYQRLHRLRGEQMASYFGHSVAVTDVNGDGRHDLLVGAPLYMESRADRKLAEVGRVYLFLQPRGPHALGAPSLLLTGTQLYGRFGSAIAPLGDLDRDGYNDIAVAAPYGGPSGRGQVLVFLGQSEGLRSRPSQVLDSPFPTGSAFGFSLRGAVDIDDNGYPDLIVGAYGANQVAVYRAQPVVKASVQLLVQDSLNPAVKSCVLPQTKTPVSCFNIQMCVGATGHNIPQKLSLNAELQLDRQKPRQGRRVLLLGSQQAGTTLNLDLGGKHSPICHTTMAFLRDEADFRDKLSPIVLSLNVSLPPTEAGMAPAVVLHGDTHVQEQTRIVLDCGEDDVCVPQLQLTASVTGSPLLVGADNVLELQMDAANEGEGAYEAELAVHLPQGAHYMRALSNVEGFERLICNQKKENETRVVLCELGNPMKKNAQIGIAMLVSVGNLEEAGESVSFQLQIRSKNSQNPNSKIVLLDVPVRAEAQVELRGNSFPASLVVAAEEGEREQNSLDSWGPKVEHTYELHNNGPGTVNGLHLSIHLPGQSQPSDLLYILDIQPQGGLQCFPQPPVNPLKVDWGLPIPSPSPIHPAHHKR
Sequence (P08514 891-1039 limits assumed): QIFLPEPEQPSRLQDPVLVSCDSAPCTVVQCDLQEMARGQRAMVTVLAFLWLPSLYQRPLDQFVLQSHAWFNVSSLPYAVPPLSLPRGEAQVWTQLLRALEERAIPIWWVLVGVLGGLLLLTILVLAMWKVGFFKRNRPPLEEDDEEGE
Sequence (P05106 27-788): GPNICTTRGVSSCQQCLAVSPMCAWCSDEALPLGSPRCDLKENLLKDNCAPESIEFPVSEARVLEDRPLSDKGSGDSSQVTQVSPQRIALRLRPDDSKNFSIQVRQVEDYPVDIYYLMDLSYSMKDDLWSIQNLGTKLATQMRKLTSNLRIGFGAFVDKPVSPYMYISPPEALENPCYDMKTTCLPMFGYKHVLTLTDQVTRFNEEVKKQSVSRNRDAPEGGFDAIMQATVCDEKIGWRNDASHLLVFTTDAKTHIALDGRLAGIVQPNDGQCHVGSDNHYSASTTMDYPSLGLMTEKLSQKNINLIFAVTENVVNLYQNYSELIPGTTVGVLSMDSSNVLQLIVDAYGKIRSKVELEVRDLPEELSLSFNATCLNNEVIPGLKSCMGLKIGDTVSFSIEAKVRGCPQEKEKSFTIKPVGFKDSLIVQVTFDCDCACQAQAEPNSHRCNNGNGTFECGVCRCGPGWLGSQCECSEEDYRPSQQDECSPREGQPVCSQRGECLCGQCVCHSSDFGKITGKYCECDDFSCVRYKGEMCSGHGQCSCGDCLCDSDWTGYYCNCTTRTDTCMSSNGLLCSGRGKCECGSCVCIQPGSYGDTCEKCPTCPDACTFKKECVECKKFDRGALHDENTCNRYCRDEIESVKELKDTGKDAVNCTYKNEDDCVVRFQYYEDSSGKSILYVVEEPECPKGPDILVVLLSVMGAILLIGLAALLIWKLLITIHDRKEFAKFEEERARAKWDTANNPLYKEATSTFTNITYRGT
Experiment: Inhibitory activity against binding of GPIIb/IIIa and fibrinogen
Settings: Table 2; 10^-6 M; read-out: GPIIb/IIIa Fibrinogen Binding Inhibitory Activity
readout_kind: inhibition at 1 µM (%)

Consider the reported inhibition at 1 µM for these molecules:
molecule: CN1CCN(c2c(F)cc3c(=O)c(C(=O)O)cn(C)c3c2F)CC1
measured_on: GPIIb/IIIa (Homo sapiens, UniProt P05106+P08514)
readout_kind: inhibition at 1 µM
measured_result: 48.6
//
molecule: CN(C)CCN(C)c1nc2c(cc1F)c(=O)c(C(=O)O)cn2C1CC1
measured_on: GPIIb/IIIa (Homo sapiens, UniProt P05106+P08514)
readout_kind: inhibition at 1 µM
measured_result: 31.3
//
molecule: CN(C)Cc1cn2c(n1)CN(c1c(F)cc3c(=O)c(C(=O)O)cn(C4CC4)c3c1F)CC2
measured_on: GPIIb/IIIa (Homo sapiens, UniProt P05106+P08514)
readout_kind: inhibition at 1 µM
measured_result: 73.3
//
molecule: CN(C)CCn1cc(C(=O)O)c(=O)c2cc(F)c(N3CCNCC3)cc21
measured_on: GPIIb/IIIa (Homo sapiens, UniProt P05106+P08514)
readout_kind: inhibition at 1 µM
measured_result: 65.1
//
molecule: CN1CCN(c2c(F)cc3c(=O)c(C(=O)O)cn(CCF)c3c2F)CC1
measured_on: GPIIb/IIIa (Homo sapiens, UniProt P05106+P08514)
readout_kind: inhibition at 1 µM
measured_result: 62.1
//
molecule: O=C(O)c1cn(Cc2nccs2)c2c(F)c(N3CCN(c4cc(N5CCCC5)nc(N5CCCC5)n4)CC3)c(F)cc2c1=O
measured_on: GPIIb/IIIa (Homo sapiens, UniProt P05106+P08514)
readout_kind: inhibition at 1 µM
measured_result: 76.4

P = CCn1cc(C(=O)O)c(=O)c2cc(F)c(N3CCN(Cc4ccccn4)CC3)cc21
Q = CN1CCN(c2c(F)cc3c(=O)c(C(=O)O)cn(C4CC4)c3c2F)CC1
From the items above, decide which of P and Q has the lower inhibition at 1 µM reading. State the label of the item chosen. Q

P = CN(C)CCOC1CCN(c2c(F)cc3c(=O)c(C(=O)O)cn(C4CC4)c3c2F)C1 (stereo not drawn)
Q = COn1cc(C(=O)O)c(=O)c2cc(F)c(N3CCn4ccnc4C3)c(F)c21
Given the listed records, identify the one among P and Q with higher inhibition at 1 µM. Bench note: the answer is the label of the chosen record. P
(P: 67.7%, Q: 31.4%)

a = CCn1cc(C(=O)O)c(=O)c2cc(F)c(N3CCN4CCCC4C3)c(F)c21 (stereo not drawn)
b = O=C(O)c1cn(Cc2nccs2)c2c(F)c(N3CCN(c4cccnc4)CC3)c(F)cc2c1=O
c = CNCCN(C)c1nc2c(cc1F)c(=O)c(C(=O)O)cn2C1CC1
d = O=C(O)c1cn(-c2ccncc2)c2c(F)c(N3CCNCC3)c(F)cc2c1=O
Arrange the 4 molecules from largest to smallest inhibition at 1 µM. Give the labels in the order requested. b, a, d, c

1 = Nc1c(F)c(N2CCN3CCC[C@@H]3C2)c(F)c2c1c(=O)c(C(=O)O)cn2C1CC1
2 = COc1cccc(Cn2cc(C(=O)O)c(=O)c3cc(F)c(N4CCC(C5CCNCC5)CC4)c(F)c32)c1
3 = Cn1cc(C(=O)O)c(=O)c2cc(F)c(N3Cc4ccccc4C(N)C3)c(F)c21 (stereo not drawn)
Hey, quick one: sort these by inhibition at 1 µM, top value first please. Give the labels in the order specified. 2, 3, 1
